test system: HEK-293T; assay: Multiplex assay against HEK293T; assay type: toxicity, cell-based; settings: human, 24 h, 10 µM, compound concentration 10 uM, replicate 2
Non-standard residues stand in square brackets, D forms with d. Residues, ends and D or L forms follow the SMILES beside them.
Parameter: Population Hoechst High Intensity Objects (%). Scope: all listed entries.
reported.endpoint: Population Hoechst High Intensity Objects (%)

[[record]]
molecule = "CC(C)(C)c1ccc(CSc2cnn(C(C)(C)C)c(=O)c2Cl)cc1"
value_units = "%"
observed_value = 23

[[record]]
molecule = "COc1cc(C(=O)N2CC[C@@H](O)[C@@H](N)C2)cc2nc(-c3cc4ccccc4n3CC3CC3)n(C)c12.Cl"
value_units = "%"
observed_value = 21

[[record]]
molecule = "CCCCCCNC(=O)Nc1ccc(S(=O)(=O)Nc2ccc(CCNC[C@H](O)COc3ccc(O)cc3)cc2)cc1"
value_units = "%"
observed_value = 9

[[record]]
molecule = "CCn1c(-c2nc3cc(C(=O)N4CCCC(N)C4)ccc3n2C)cc2ccccc21.Cl (stereo not drawn)"
value_units = "%"
observed_value = 9

[[record]]
molecule = "Cc1c(Cc2ccc3ccccc3n2)c2cc(F)ccc2n1CC(=O)O"
value_units = "%"
observed_value = 5

[[record]]
molecule = "CN1C[C@H](C(=O)N[C@]2(C)O[C@@]3(O)[C@@H]4CCCN4C(=O)[C@H](Cc4ccccc4)N3C2=O)C[C@@H]2c3cccc4[nH]cc(c34)C[C@H]21.CS(=O)(=O)O [DIHYDROERGOTAMINE MESYLATE]"
value_units = "%"
observed_value = 6

[[record]]
molecule = "CCC(=O)OCC(=O)[C@@]1(OC(=O)CC)[C@@H](C)C[C@H]2[C@@H]3CCC4=CC(=O)C=C[C@]4(C)[C@@]3(Cl)[C@@H](O)C[C@@]21C [BECLOMETHASONE DIPROPIONATE]"
value_units = "%"
observed_value = 9

[[record]]
molecule = "COCCn1c(C)c(C)s/c1=N\\C(=O)C1C(C)(C)C1(C)C"
value_units = "%"
observed_value = 7

[[record]]
molecule = "Cc1sc2c(c1C)C(c1ccc(Cl)cc1)=N[C@H](CC(=O)OC(C)(C)C)c1nnc(C)n1-2"
value_units = "%"
observed_value = 6

[[record]]
molecule = "O=C(Nc1cc(-c2ccccc2)nn1-c1ccccc1F)c1ccc([N+](=O)[O-])cc1"
value_units = "%"
observed_value = 3

[[record]]
molecule = "CC(C)C[C@@H]1NC(=O)[C@@H](C(C)C)NC(=O)[C@@H]2CCCN2C(=O)[C@@H](CC(=O)O)NC(=O)[C@@H](Cc2c[nH]c3ccccc23)NC1=O [BQ-123] (cyclo(L[dW][dD]P[dV]))"
value_units = "%"
observed_value = 7

[[record]]
molecule = "S=C(NCCCc1c[nH]cn1)NCCCN(Cc1ccc(Cl)c(Cl)c1)c1ccc(Br)cn1"
value_units = "%"
observed_value = 39

[[record]]
molecule = "C[C@@H]1CC(=O)Nc2cccc(-c3ccc4c(c3)c(-c3cnn(C)c3)nn4C)c2N1"
value_units = "%"
observed_value = 5

[[record]]
molecule = "O=c1nc2[nH]c3ccccc3nc-2c(=O)[nH]1"
value_units = "%"
observed_value = 15

[[record]]
molecule = "Cc1cc(-c2ccc3c(c2)CC[C@H]3N2CC3(CCN(C(=O)Cc4cn5cc(C)sc5n4)CC3)C2)ncn1"
value_units = "%"
observed_value = 6

[[record]]
molecule = "COc1ccc2[nH]c(I)c(CCNC(C)=O)c2c1"
value_units = "%"
observed_value = 9

[[record]]
molecule = "COC(c1ccccc1)(c1ccccc1)[C@H](Oc1nc(C)cc(C)n1)C(=O)O"
value_units = "%"
observed_value = 12

[[record]]
molecule = "C=CCN1C[C@H](C(=O)N(CCCN(C)C)C(=O)NCC)C[C@@H]2c3cccc4[nH]cc(c34)C[C@H]21"
value_units = "%"
observed_value = 12

[[record]]
molecule = "CN1CCC(C(=O)c2cccc(NC(=O)c3c(F)cc(F)cc3F)n2)CC1"
value_units = "%"
observed_value = 8

[[record]]
molecule = "Cc1ccc(OCC(O)C(C)NC(C)C)c2c1CCC2.Cl (stereo not drawn)"
value_units = "%"
observed_value = 11

[[record]]
molecule = "O=c1ccc2ccc(OCCCCN3CCN(c4cccc5sccc45)CC3)cc2[nH]1"
value_units = "%"
observed_value = 46

[[record]]
molecule = "Cn1cc(C(=O)OCC2CCN(CCNS(C)(=O)=O)CC2)c2ccccc21"
value_units = "%"
observed_value = 6

[[record]]
molecule = "Cc1cc(=O)n(C)c2cc(N3C(=O)CC[C@H](NS(=O)(=O)CC(C)C)[C@H]3c3ccc(Cl)cc3)ccc12"
value_units = "%"
observed_value = 22

[[record]]
molecule = "Cl.Cl.OCCOCCN1CCN(C(c2ccccc2)c2ccc(Cl)cc2)CC1 (stereo not drawn) [HYDROXYZINE HYDROCHLORIDE]"
value_units = "%"
observed_value = 22

[[record]]
molecule = "CC(C)C[C@H](CO)Nc1nc(S[C@@H](C)c2ccccc2)nc2nc(N)sc12"
value_units = "%"
observed_value = 8

[[record]]
molecule = "CCCCC[C@H](O)/C=C/[C@H]1[C@H](O)CC(=O)[C@@H]1CCCCCCC(=O)O"
value_units = "%"
observed_value = 8

[[record]]
molecule = "CC(C)(O)C(=O)N1CCN(c2ccc(C(F)(F)F)c(C3=C(c4c[nH]c5ccccc45)C(=O)NC3=O)c2)CC1"
value_units = "%"
observed_value = 7

[[record]]
molecule = "Nc1nc(-c2ccco2)c2cnn(Cc3ccccc3F)c2n1"
value_units = "%"
observed_value = 10


----------
Examples of molecules with documented Population Mitotic Cells (%) follow.
test system: U2OS; assay: Multiplex assay against U2OS; type: toxicity, cell-based; details: human, 48 h, 10 µM, compound concentration 10 uM, replicate 1
Non-standard residues stand in square brackets, D forms with d. Residues, ends and D or L forms follow the SMILES beside them.
reported.endpoint: Population Mitotic Cells (%)

[[record]]
molecule = "O=C(O)CCC/C=C\\CC1C(O)CC(O)C1/C=C/C(O)COc1cccc(Cl)c1 (centres undefined) [CLOPROSTENOL]"
observed_value = 8

[[record]]
molecule = "CC(C)C[C@@H]1NC(=O)[C@@H](C(C)C)NC(=O)[C@@H]2CCCN2C(=O)[C@@H](CC(=O)O)NC(=O)[C@@H](Cc2c[nH]c3ccccc23)NC1=O [BQ-123] (cyclo(L[dW][dD]P[dV]))"
observed_value = 5

[[record]]
molecule = "COCCn1c(C)c(C)s/c1=N\\C(=O)C1C(C)(C)C1(C)C"
observed_value = 18

[[record]]
molecule = "Cc1cc(O)c(-c2ccc([C@@H](C)CN(C)C)cc2)c2c1[nH]c(=O)c1sccc12"
observed_value = 3


----------
system: U2OS; test: Multiplex assay against U2OS; type: toxicity, cell-based; conditions: human, 12 h, 1 µM, compound concentration 1 uM, replicate 1
# key: entry, value: Population Tubulin-Different-Phenotype (%)
reported.endpoint: Population Tubulin-Different-Phenotype (%)

[[record]]
molecule = "O=c1nc2[nH]c3ccccc3nc-2c(=O)[nH]1"
observed_value = 3

[[record]]
molecule = "Nc1nc(-c2ccco2)c2cnn(Cc3ccccc3F)c2n1"
observed_value = 3

[[record]]
molecule = "COc1cc(OC2CCN(C(C)=O)CC2)ccc1C(=O)N1CCC(N2C(=O)OCc3ccccc32)CC1"
observed_value = 3

[[record]]
molecule = "C[C@@H]1CC(=O)Nc2cccc(-c3ccc4c(c3)c(-c3cnn(C)c3)nn4C)c2N1"
observed_value = 6

[[record]]
molecule = "CN(C)C/C=C/C(=O)Nc1ccc(C(=O)N2CCCC(Nc3ncc(Cl)c(-c4c[nH]c5ccccc45)n3)C2)cc1 (configuration not stated)"
observed_value = 4

[[record]]
molecule = "CCCCC[C@H](O)/C=C/[C@H]1[C@H](O)CC(=O)[C@@H]1CCCCCCC(=O)O"
observed_value = 2

[[record]]
molecule = "Cl.Cl.OCCOCCN1CCN(C(c2ccccc2)c2ccc(Cl)cc2)CC1 (configuration not stated) [HYDROXYZINE HYDROCHLORIDE]"
observed_value = 7


----------
test system: Fibroblast; experiment: Multiplex assay against human fibroblast; type: toxicity, cell-based; settings: 24 h, 1 µM, compound concentration 1 uM, replicate 2
reported.endpoint: Population Membrane Permeable-Phenotype (%)

[[record]]
compound = "COC(c1ccccc1)(c1ccccc1)[C@H](Oc1nc(C)cc(C)n1)C(=O)O [AMBRISENTAN]"
value_units = "%"
observed_value = 3

[[record]]
compound = "CN1C[C@H](C(=O)N[C@]2(C)O[C@@]3(O)[C@@H]4CCCN4C(=O)[C@H](Cc4ccccc4)N3C2=O)C[C@@H]2c3cccc4[nH]cc(c34)C[C@H]21.CS(=O)(=O)O [DIHYDROERGOTAMINE MESYLATE]"
value_units = "%"
observed_value = 7

[[record]]
compound = "COc1cc2nc(N3CCN(C(=O)c4ccco4)CC3)nc(N)c2cc1OC.Cl [PRAZOSIN HYDROCHLORIDE]"
value_units = "%"
observed_value = 12

[[record]]
compound = "COc1ccc2[nH]c(I)c(CCNC(C)=O)c2c1 [IODOMELATONIN]"
value_units = "%"
observed_value = 6

[[record]]
compound = "O=C(Nc1cc(-c2ccccc2)nn1-c1ccccc1F)c1ccc([N+](=O)[O-])cc1"
value_units = "%"
observed_value = 6

[[record]]
compound = "N[C@](CC1c2ccccc2Oc2ccccc21)(C(=O)O)[C@H]1C[C@@H]1C(=O)O"
value_units = "%"
observed_value = 6

[[record]]
compound = "CCCCCCNC(=O)Nc1ccc(S(=O)(=O)Nc2ccc(CCNC[C@H](O)COc3ccc(O)cc3)cc2)cc1 [L-755507]"
value_units = "%"
observed_value = 3

